Field: viability, T/C. Provide a value for each of the compounds that follow.
System: 361931-004-R-J1-PDC multicell spheroid viability;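 also: spheroids exposed to agents for seven days before readout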
assay-info: Anticancer human tumor 361931-004-R-J1-PDC patient-derived colon adenocarcinoma cell line growth inhibition [PI3K]
measurement-conditions: second compound 1 µM; first compound 0.1 µM; active compounds read low
The figure you give is taken to be in %; do not add the unit.

For the compound C=CC(=O)N1CCN(c2nc(=O)n(-c3c(C)ccnc3C(C)C)c3nc(-c4c(O)cccc4F)c(F)cc23)C(C)C1 (stereo not given) + Cc1nc(NC(=O)N2CCCC2C(N)=O)sc1-c1ccnc(C(C)(C)C(F)(F)F)c1 , what viability, T/C is on record? 83.4

For the compound Cn1ncc(Cl)c1-c1cc(C(=O)NC(CN)Cc2cccc(F)c2)sc1Cl (stereo not given) + Cc1nc(NC(=O)N2CCCC2C(N)=O)sc1-c1ccnc(C(C)(C)C(F)(F)F)c1 , what viability, T/C is on record? 93.7

For the compound Cn1nccc1Nc1nccc(-c2ccn(C(CO)c3ccc(Cl)c(F)c3)c(=O)c2)n1 (stereo not given) + CC(Nc1ccc2c(c1)OCCn1cc(N3C(=O)OCC3C(F)F)nc1-2)C(N)=O , what viability, T/C is on record? 83.3

For the compound C=CC(=O)N1CCN(c2nc(=O)n(-c3c(C)ccnc3C(C)C)c3nc(-c4c(O)cccc4F)c(F)cc23)C(C)C1 (stereo not given) + CC(Nc1ccc2c(c1)OCCn1cc(N3C(=O)OCC3C(F)F)nc1-2)C(N)=O , what viability, T/C is on record? 78.2

For the compound C#Cc1c(F)ccc2cc(O)cc(-c3ncc4c(N5CC6CCC(C5)N6)nc(OCC56CCCN5CC(F)C6)nc4c3F)c12 (stereo not given) + CC(Nc1ccc2c(c1)OCCn1cc(N3C(=O)OCC3C(F)F)nc1-2)C(N)=O , what viability, T/C is on record? 71.2
